Experiment: Pharmacokinetics in rats after IV and PO administration
Type: in vivo, male Sprague–Dawley rats
Conditions: male, Sprague-Dawley, whole blood and plasma, 3 mg/kg; rat, IV column
assayReadout: blood plasma ratio
Write the number on its own, no unit after it.

Consider the molecule CCN(CC)CCN(CCN(CC)CC)c1cc(OC)c(OC)cc1Br and give its measured blood plasma ratio.
2.1

* * *

Assay: Metabolism in human liver microsomes
Assay type: in vitro ADME
Details: human, liver microsomes; 1 μM substrate, 0.4 mg/mL protein, NADPH, 37 °C, 60 min; single incubation; read-out: CLint of authentic metabolite incubated
Protocol: Following the protocols described by Charman et al.,[28]1 was incubated at 37 °C with human, rat, and rhesus monkey liver microsomes. […] The supernatant was removed and analyzed by LC/MS. […] For metabolite quantitation, the method described below for the analysis of plasma samples was used.
assayReadout: microsomal CLint at 1 μM

Value lookup for microsomal CLint at 1 μM; key = CCNCCN(CCN(CC)CC)c1cc(OC)c(OC)cc1Br
< 3 µL/min/mg

Please give the measured microsomal CLint at 1 μM for this compound: CCNCCN(CCNCC)c1cc(OC)c(OC)cc1Br
6 µL/min/mg

Which measured microsomal CLint at 1 μM value corresponds to CCNCCN(CCN(CC)CC)c1cc(OC)c(O)cc1Br ?
< 3 µL/min/mg

// returns reported microsomal CLint at 1 μM for input CCN(CC)CCN(CCN(CC)CC)c1cc(OC)c(O)cc1Br
< 3 µL/min/mg
